Tested on: SNB-75
Assay: Growth inhibition of human SNB75 cells assessed as growth inhibition at 10 uM by sulforhodamine B assay
Type: functional
Conditions: read-out: GI
In this section, each of the compounds is paired with its reported inhibition of growth at 10 µM.
measured property: inhibition of growth at 10 µM (%)

1) COc1cc(/C=C2\C[C@]3(C)[C@H]4CC=C5[C@@H]6CC(C)(C)C[C@@H](O)[C@]6(C(=O)O)CC[C@@]5(C)[C@]4(C)CC[C@H]3C(C)(C)C2=O)ccc1O : 17.9
2) CC1(C)C[C@@H](O)[C@]2(C(=O)O)CC[C@]3(C)C(=CC[C@@H]4[C@@]5(C)C/C(=C\C=C\c6ccccc6)C(=O)C(C)(C)[C@@H]5CC[C@]43C)[C@@H]2C1 : 27.9

# credit: ChEMBL document CHEMBL2413072
